Below, each of the compounds is paired with its reported AC50 value.
# assay-system: PKR K410E (Homo sapiens, UniProt P30613, K410E)
# Sequence (P30613 whole entry K410E): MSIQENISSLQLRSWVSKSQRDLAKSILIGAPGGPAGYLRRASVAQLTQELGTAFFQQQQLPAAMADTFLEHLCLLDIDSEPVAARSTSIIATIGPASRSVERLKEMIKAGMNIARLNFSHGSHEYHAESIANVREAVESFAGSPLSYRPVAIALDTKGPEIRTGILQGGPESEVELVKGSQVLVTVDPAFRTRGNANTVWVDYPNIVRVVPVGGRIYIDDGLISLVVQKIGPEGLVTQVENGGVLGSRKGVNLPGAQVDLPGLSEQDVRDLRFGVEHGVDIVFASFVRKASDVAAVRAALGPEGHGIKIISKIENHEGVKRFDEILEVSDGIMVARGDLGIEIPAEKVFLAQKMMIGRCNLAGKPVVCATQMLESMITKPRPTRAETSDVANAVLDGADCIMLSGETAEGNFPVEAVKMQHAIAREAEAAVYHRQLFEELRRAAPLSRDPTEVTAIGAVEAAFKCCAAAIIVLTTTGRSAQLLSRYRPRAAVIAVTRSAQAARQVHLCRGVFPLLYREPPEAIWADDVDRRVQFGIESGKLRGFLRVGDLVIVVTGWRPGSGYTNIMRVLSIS
# procedure-summary: PKR mutant assay (K410E), AC50, LDH/NADH-coupled, absorbance at 340 nm
# Format: biochemical
# settings: Table 2; enzyme assay

{"columns": ["compound", "AC50"],
 "data": [
  ["CC(c1ccccc1)c1nc2c(s1)c1cnn(Cc3cccc4[nH]ncc34)c(=O)c1n2C (centres unmarked)", "< 300 nM"],
  ["Cn1c2nc(Cc3cc[nH]n3)sc2c2cnn(Cc3ccc4ccccc4n3)c(=O)c21", "< 300 nM"],
  ["Cc1nc2c(s1)c1cnn(Cc3cccc(F)c3)c(=O)c1n2C", "> 800 nM"]
]}

Enquiry: # query: AC50 of entry Cn1c2nc(Cc3cccc(S(N)(=O)=O)c3)sc2c2cnn(Cc3cccc4[nH]ncc34)c(=O)c21
Return: < 300 nM
